Across several publications, the following IC50 results were reported for UniProt:A3EZJ3.
Record the value in µM, omitting the unit from your answer.

IC50 measured on CC[C@@H](C)[C@@H](NC(=O)[C@H](CC(=O)O)NC(=O)[C@H](CC(=O)O)NC(C)=O)C(=O)N[C@H](C(=O)N1CCC[C@H]1C(=O)N[C@@H](CS)C(=O)O)C(C)C = 800

IC50 measured on CC[C@H](NC(=O)[C@H](CC1CCCCC1)NC(=O)[C@@H](NC(=O)[C@H](CC(C)C)NC(=O)c1cnccn1)[C@@H](C)CC)C(=O)C(=O)NCC(=O)NS(=O)(=O)c1cccc(-c2ccccc2)c1 = 0.64

IC50 measured on C=CC[C@H](NC(=O)[C@@H]1C[C@@H](CCCc2ccc3ccccc3c2)c2c(Cl)nc(NCc3cccc(OC)c3)c(=O)n21)B1OC2CC3CC(C3(C)C)[C@@]2(C)O1 (stereo partly drawn) = 0.06

IC50 measured on CC[C@H](C)[C@H](NC(=O)[C@H](CC(=O)O)NC(=O)[C@H](CC(=O)O)NC(C)=O)C(=O)NC(C(=O)N1CCC[C@H]1C(=O)N[C@@H](CS)C(=O)O)C(C)C (single isomer, unassigned) = 830

IC50 measured on CC(=O)N[C@H](C(=O)N[C@H](C(=O)N1CC(Oc2cccc(-c3ccccc3)c2)CC1C(=O)NC1(C(=O)O)CC1)C(C)C)C1CCCCC1 (single isomer, unassigned) = 6.2

IC50 measured on CC[C@H](NC(=O)[C@@H]1C[C@@](C)(CC(=O)Nc2ccccc2)c2ncc(NCc3cccc(C(F)(F)F)c3)c(=O)n21)B1OC2C3CC(C[C@]2(C)O1)C3(C)C (stereo partly drawn) = 0.17
